Test: molar heat capacity at constant pressure
Details: 333.15 K; 101 kPa; Liquid; Small sample (50 mg) DSC
The following compounds are shown together with reported molar heat capacity at constant pressure values.
Return type: number; implicit unit J/K/mol.

- CN1CCNCC1: 217.2
- OCCN1CCNCC1 [N-(2-hydroxyethyl)piperazine]: 308.1
- OCCN1CCOCC1: 276.2
- CN1CCN(C)CC1: 227.5

Enquiry: Name the recorded molar heat capacity at constant pressure of the item `NCCCN1CCOCC1` in your answer.
Return: 307.9

----------
Experiment: molar heat capacity at constant pressure
Conditions: 313.15 K; 101 kPa; Liquid; Small sample (50 mg) DSC
MEASURED ENDPOINT: molar heat capacity at constant pressure (J/K/mol)
The answer is to be given in J/K/mol; state only the numeric part.

Reference set, count: 4
• OCCN1CCOCC1 = 269.2
• CN1CCN(C)CC1 = 223.4
• OCCN1CCNCC1 [N-(2-hydroxyethyl)piperazine] = 296
• CN1CCNCC1 = 215.7

Enquiry: Return reported molar heat capacity at constant pressure. Input compound: `NCCCN1CCOCC1`
Return: 301.2

----------
Reported molar heat capacity at constant pressure values follow for various compounds
Assay: molar heat capacity at constant pressure
Conditions: 308.15 K; 101 kPa; Liquid; Small sample (50 mg) DSC
The response must be a number in J/K/mol with no trailing unit.

Examples from the recorded data:
- CN1CCNCC1: 215
- OCCN1CCNCC1 [N-(2-hydroxyethyl)piperazine]: 292.9
- NCCCN1CCOCC1: 299.6
- OCCN1CCOCC1: 267.1

Enquiry: Indicate the recorded molar heat capacity at constant pressure value for this compound: `CN1CCN(C)CC1`
Return: 222.1

----------
Experiment: molar heat capacity at constant pressure
Conditions: 323.15 K; 101 kPa; Liquid; Small sample (50 mg) DSC
MEASURED ENDPOINT: molar heat capacity at constant pressure (J/K/mol)
Kindly provide the numeric value in J/K/mol only, without the unit symbol.

Would you please look over these solved cases?
* CN1CCN(C)CC1 [1,4-dimethylpiperazine] | 225.3
* CN1CCNCC1 [N-methylpiperazine] | 216.9
* OCCN1CCOCC1 [4-morpholineethanol] | 272.6
* NCCCN1CCOCC1 [N-(3-aminopropyl)morpholine] | 304.5

Enquiry: For the compound OCCN1CCNCC1 [N-(2-hydroxyethyl)piperazine] , report molar heat capacity at constant pressure.
Return: 301.7

----------
Test: molar heat capacity at constant pressure
Details: 348.15 K; 101 kPa; Liquid; Small sample (50 mg) DSC
MEASURED ENDPOINT: molar heat capacity at constant pressure (J/K/mol)
Field: numeric (J/K/mol). Do not append units.

Consider the reported molar heat capacity at constant pressure for these compounds:
* NCCCN1CCOCC1 [N-(3-aminopropyl)morpholine] | 312.7
* OCCN1CCNCC1 [N-(2-hydroxyethyl)piperazine] | 316.5
* CN1CCNCC1 [N-methylpiperazine] | 217.6
* OCCN1CCOCC1 [4-morpholineethanol] | 283.2

Enquiry: Read off the recorded molar heat capacity at constant pressure for CN1CCN(C)CC1 [1,4-dimethylpiperazine]
Return: 231.7

----------
Listed compounds paired with reported molar heat capacity at constant pressure
Assay: molar heat capacity at constant pressure
Details: 338.15 K; 101 kPa; Liquid; Small sample (50 mg) DSC
Lab book: enter the figure in J/K/mol, no units written.

A selection of reference data follows.
- NCCCN1CCOCC1 [N-(3-aminopropyl)morpholine]: 309.6
- OCCN1CCNCC1 [N-(2-hydroxyethyl)piperazine]: 311
- OCCN1CCOCC1 [4-morpholineethanol]: 278.7
- CN1CCN(C)CC1 [1,4-dimethylpiperazine]: 228.5

// switching to the query compound
Enquiry: Supply recorded molar heat capacity at constant pressure for CN1CCNCC1 [N-methylpiperazine] here.
Return: 215.5

----------
Catalogue of compounds with associated molar heat capacity at constant pressure
Experiment: molar heat capacity at constant pressure
Details: 318.15 K; 101 kPa; Liquid; Small sample (50 mg) DSC
Field format: number, assumed J/K/mol, no unit text.

* OCCN1CCNCC1 [N-(2-hydroxyethyl)piperazine] | 298.9
* CN1CCNCC1 [N-methylpiperazine] | 216.4
* NCCCN1CCOCC1 [N-(3-aminopropyl)morpholine] | 302.8
* OCCN1CCOCC1 [4-morpholineethanol] | 270.8

Read the next record carefully.
Enquiry: Return the recorded molar heat capacity at constant pressure value; entry: CN1CCN(C)CC1 [1,4-dimethylpiperazine]
Return: 224.6

----------
Experiment: molar heat capacity at constant pressure
Conditions: 353.15 K; 101 kPa; Liquid; Small sample (50 mg) DSC
MEASURED ENDPOINT: molar heat capacity at constant pressure (J/K/mol)
Use J/K/mol as the unit, but write only the number.

Field: example entries. Status: answers known.
- OCCN1CCOCC1: 284.9
- NCCCN1CCOCC1: 313.4

Enquiry: Provide measured molar heat capacity at constant pressure value, entry: `CN1CCN(C)CC1`
Return: 235.9

Enquiry: Please supply the value of reported molar heat capacity at constant pressure for the item `CN1CCNCC1`
Return: 218

Enquiry: Using known records, supply molar heat capacity at constant pressure for OCCN1CCNCC1 [N-(2-hydroxyethyl)piperazine]
Return: 319

----------
Assay: molar heat capacity at constant pressure
Details: 343.15 K; 101 kPa; Liquid; Small sample (50 mg) DSC
# Lookup of reported molar heat capacity at constant pressure keyed by entry
Please state the figure in J/K/mol; there is no need to write the unit.

Worked examples follow.
* NCCCN1CCOCC1 | 311.3
* OCCN1CCNCC1 [N-(2-hydroxyethyl)piperazine] | 313.9
* OCCN1CCOCC1 | 281

Enquiry: // Input: `CN1CCNCC1` . Output its molar heat capacity at constant pressure only.
Return: 216.2

Enquiry: Answer with the recorded molar heat capacity at constant pressure for the molecule listed here: `CN1CCN(C)CC1`
Return: 229.6

----------
Test: molar heat capacity at constant pressure
Settings: 298.15 K; 101 kPa; Liquid; Small sample (50 mg) DSC
Listed here are compounds together with their documented molar heat capacity at constant pressure.
Express your answer in J/K/mol, writing the number without its unit.

Take a look at these entries with their results.
- NCCCN1CCOCC1: 296.2
- CN1CCNCC1: 213.9
- OCCN1CCOCC1: 263.9
- CN1CCN(C)CC1: 216.5

Enquiry: Give molar heat capacity at constant pressure for OCCN1CCNCC1 [N-(2-hydroxyethyl)piperazine]
Return: 285

----------
Listed here are compounds together with their documented molar heat capacity at constant pressure.
Assay: molar heat capacity at constant pressure
Conditions: 328.15 K; 101 kPa; Liquid; Small sample (50 mg) DSC
Lab book: enter the figure in J/K/mol, no units written.

The cases that follow already have their molar heat capacity at constant pressure on record.
• CN1CCN(C)CC1 [1,4-dimethylpiperazine] = 225.7
• CN1CCNCC1 [N-methylpiperazine] = 217.3
• OCCN1CCOCC1 [4-morpholineethanol] = 274.3

Enquiry: Given NCCCN1CCOCC1 [N-(3-aminopropyl)morpholine] , respond with its molar heat capacity at constant pressure.
Return: 306.1

Enquiry: Report molar heat capacity at constant pressure, nothing else, for this compound: OCCN1CCNCC1 [N-(2-hydroxyethyl)piperazine]
Return: 305

----------
Listing: molar heat capacity at constant pressure of selected molecules
Experiment: molar heat capacity at constant pressure
Details: 303.15 K; 101 kPa; Liquid; Small sample (50 mg) DSC
± gives the expanded uncertainty stated by the source.
Please format your answer as a value with the unit trailing.

Solved cases (4 shown):
* CN1CCNCC1 | 214.4 ± 3.6 J/K/mol
* OCCN1CCNCC1 [N-(2-hydroxyethyl)piperazine] | 289.9 ± 4.6 J/K/mol
* NCCCN1CCOCC1 | 298.2 ± 4.7 J/K/mol
* OCCN1CCOCC1 | 265.3 ± 4.3 J/K/mol

The record that follows has no molar heat capacity at constant pressure shown yet.
Enquiry: Report molar heat capacity at constant pressure for `CN1CCN(C)CC1`
Return: 221.7 ± 3.7 J/K/mol
